# Test system: SK-MEL-5 melanoma
# test_method_notes: NCI-60 one-dose screen, 48 h (100 = growth as untreated, 0 = no growth, -100 = all killed)
# cond: 10 µM unless noted
The panel holds about 83,000 compounds, 20% with a hit somewhere; the sample as a whole holds those more often.
For each record, write down the corresponding growth.
Respond with the bare value in %.

QUERY: Return growth (reported value) for this molecule: COc1ccc(C(=O)COc2ccc(/C=C3\Oc4ccc5ccccc5c4C3=O)cc2)cc1
RESULT: 95.7

QUERY: Return growth (reported value) for this molecule: Nc1ccc2c(c1Br)Cc1ccccc1-2
RESULT: 107

QUERY: State, in one line, measured growth of CN(C)CCCNc1nn2c(=O)c3ccccc3nc2c2ccccc12
RESULT: 52.6

QUERY: Please look at this molecule and report its growth: COC(=O)N/N=C/c1coc2ccc(Cl)cc2c1=O
RESULT: 106

QUERY: Answer with the recorded growth of N#Cc1ncc(-c2ccc(C(F)(F)F)cc2)c(NC2CCCCCC2)n1 only.
RESULT: -6.45

QUERY: Give a short answer stating reported growth for CC(C)Sc1nc(Cl)c(C#N)c(-c2ccc(F)cc2)n1 .
RESULT: 100

QUERY: Complete the entry with growth for C(=C1c2ccccc2-c2ccccc21)c1ccncc1
RESULT: 46.6

QUERY: Specify growth for COc1cc(-c2nc3nc4sc(C)c(C)c4c(=O)n3[nH]2)cc(OC)c1OC and stop.
RESULT: 55.3

QUERY: Consider the molecule CC[C@@H](c1ccc(O)c(O)c1)[C@@H](CC)c1ccc(O)c(O)c1 . State its measured growth.
RESULT: 91.4

QUERY: Please report growth for the following molecule: CC(=O)N1N=C(c2ccc(Cl)cc2)CC1c1c(C)nn(-c2ccccc2)c1N(C)Cc1ccccc1 (stereo unspecified)
RESULT: 70.3

QUERY: Output measured growth for this item: CC(C)CC1NC(=O)C(CCCN)NC(=O)C(C(C)C)NC(=O)C2CCCN2C(=O)C(Cc2ccccc2)NC(=O)C(CC(C)C)NC(=O)C(CCCN)NC(=O)C(C(C)C)NC(=O)C2CCCN2C(=O)C(Cc2ccccc2)NC1=O (stereo unspecified)
RESULT: -98.3

QUERY: Provide one value: measured growth of N#Cc1c(NC(=O)c2ccco2)[n+]([O-])c2ccccc2[n+]1[O-]
RESULT: 91

QUERY: Specify reported growth for the molecule shown: COc1cc(/C=C/C(=O)CC(=O)/C=C/c2ccc(OC(=O)C3C4CC5CC(C4)CC3C5)c(OC)c2)ccc1OC(=O)C1C2CC3CC(C2)CC1C3 (stereo unspecified)
RESULT: 110

QUERY: // Input: COc1cc(C2CC(C3C(=O)N(C)C(=O)N(C)C3=O)=NN2c2cc(Cl)cc(Cl)c2)cc(OC)c1OC (stereo unspecified) . Output its growth only.
RESULT: 91.3

QUERY: Give growth for the following molecule: O=C(COc1ccc(/C=C2\Cc3ccccc3C2=O)cc1)c1ccc(Cl)cc1
RESULT: 98.4

QUERY: Supply reported growth belonging to this molecule: CCN1CCN(c2nc(NNC(=O)Cc3ccccc3)nc(N3CCN(C(c4ccccc4)c4ccccc4)CC3)n2)CC1
RESULT: 2.68

QUERY: Quick one: give measured growth for CC1Cc2ccccc2N1C(=O)c1ccc(C(=O)c2ccccc2)cc1 (stereo unspecified)
RESULT: 74.2

QUERY: Identify measured growth associated with O=Nc1c2cccnc2n2nnc3ccc(Cl)cc3c12
RESULT: 96.2

QUERY: Please indicate growth recorded for OCCCc1n(Cc2ccc3ccccc3c2)c2ccccc2[n+]1Cc1ccc2ccccc2c1
RESULT: -97.8

QUERY: Indicate its recorded growth; the molecule in question is O=C(COc1cccc(/C=C2\Cc3ccccc3C2=O)c1)c1ccc(Cl)cc1
RESULT: 89.4

QUERY: Tell me growth reported for CCOc1nc(-c2ccco2)n2nc(-c3ccco3)cc2n1
RESULT: 81.4

QUERY: Specify growth for Cc1cc(C)cc(S(=O)(=O)n2ccc(-c3ccc4c(c3)CCC(C)(C)O4)n2)c1 and stop.
RESULT: 82.9

QUERY: Supply growth value. Item: COc1cccc(-c2nc(-c3ccc(N)cc3)co2)c1
RESULT: 85.9

QUERY: Recall and state the measured growth for C#C[C@]1(O)CCC2C3CCc4cc(O)ccc4C3CC[C@@]21C (stereo partly specified) .
RESULT: 8.95

QUERY: Find the measured growth of c1ccc(CN=C(NCc2ccccc2)NCc2ccccc2)cc1 and report it.
RESULT: 35

QUERY: State, in one line, measured growth of CCCCc1ccc(C(N)=O)nc1
RESULT: 101

QUERY: Tell me measured growth for O=C(Nc1ccc2c(c1)C(=O)c1ccccc1-2)c1ccccc1 please.
RESULT: 97.9

QUERY: Give the reported value of growth for this record: COc1cc(/C=C/C(=O)C(C(=O)/C=C/c2ccc(OC(=O)CCNc3nnc(C)s3)c(OC)c2)C(=O)CCNc2nnc(C)s2)ccc1OC(=O)CCNc1nnc(C)s1
RESULT: -22.6

QUERY: Supply recorded growth for CC(C)=CCCC(C)c1ccc(C)c2c1OCN(CC1CCNCC1)C2 (stereo unspecified) here.
RESULT: 42.2

QUERY: Entry O=C(Nc1nc2c(C(F)(F)F)cccc2s1)c1cc(Cl)ccc1O needs its growth filled in; supply it.
RESULT: -46.7

QUERY: Report measured growth; entry is CC[C@@H](C)/C=C(C)/C=C/C(=O)c1c(O)c(-c2ccc(O)cc2)cn(OC2CC(=O)CCC(C)OC(=O)CC2O)c1=O (stereo partly specified)
RESULT: -22.7

QUERY: Name the recorded growth of the molecule listed here: Cc1n(Cc2ccc3ccccc3c2)c2ccccc2[n+]1Cc1ccc2ccccc2c1
RESULT: -97.6

QUERY: Return reported growth. Input molecule: NS(=O)(=O)c1cc(C2(O)NC(=O)c3ccccc32)ccc1Cl (stereo unspecified)
RESULT: 115

QUERY: Entry Cc1ccc2nc(-c3ccc(N(C)C)c(Br)c3)cn2c1 needs its growth filled in; supply it.
RESULT: 77.9

QUERY: Write down growth measured for item CC1CN(/N=C/c2ccc([N+](=O)[O-])o2)C(=N)O1 (stereo unspecified)
RESULT: 93.4

QUERY: Name the recorded growth of the item CN[C@@H]1C(OC2[C@H](O[C@H]3[C@H](O)[C@@H](O)[C@H](N=C(N)N)[C@@H](O)[C@@H]3N=C(N)N)OC(C)[C@]2(O)CO)OC(CO)C(O)C1O (stereo partly specified) in your answer.
RESULT: 105

QUERY: Supply recorded growth for CCCCCCCC[Si](OCC)(OCC)OCC here.
RESULT: 111

QUERY: Let me know recorded growth for CC1CN(CC(O)c2ccc(Br)cc2)CCO1 (stereo unspecified) , thanks.
RESULT: 108

QUERY: Provide one value: measured growth of c1ccc(-c2nc(Nc3nccnn3)c3ccccc3n2)cc1
RESULT: 99.1

QUERY: Look up growth of CCC(=O)Nc1cc2c(cc1Cl)-c1ccccc1C2 and report it.
RESULT: 93.5

QUERY: Provide only the value of recorded growth for COc1ccc(/C=C2\CCc3ccccc3C2=O)cc1
RESULT: 99.3

----------
# Tested on: SK-MEL-2 melanoma
# test_method_notes: NCI-60 one-dose screen, 48 h (100 = growth as untreated, 0 = no growth, -100 = all killed)
# cond: 10 µM unless noted
Compounds without any hit were thinned out: in the full panel of roughly 83,000, 20% have a hit. The source made the active and inactive calls. The calls were made as follows: active = growth percent below 10; inactive = the rest.
observable: growth

QUERY: Identify growth associated with the compound CC(=O)c1nn(-c2ccccc2)c(=Nc2ccccc2)cc1C
RESULT: 114% (inactive)

QUERY: Hello, please tell me recorded growth for this one: CCCn1c(N)c(C(=O)CNc2ccc(I)cc2)c(=O)[nH]c1=O
RESULT: -7.88% (active)

QUERY: Provide measured growth value, entry: O=C(NCCNC(=O)Oc1cccc2ccccc12)Oc1cccc2ccccc12
RESULT: 88.7% (inactive)

QUERY: Please report the measured growth for O=C(N/N=C/c1cccc([N+](=O)[O-])c1)c1ccc(Br)o1
RESULT: 103% (inactive)

QUERY: Annotate the compound COc1ccc(-c2cc(-c3nnc(SCC(=O)Nc4ccc(C(C)=O)cc4)n3-c3ccccc3)c3ccccc3n2)cc1OC with its measured growth.
RESULT: 97.9% (inactive)

QUERY: Look up and report measured growth for this entry: CCOC(=O)N1CCC(N=C2CSc3nnc(-c4cc(C(F)(F)F)cc(C(F)(F)F)c4)n3N2)CC1
RESULT: -22.5% (active)

QUERY: Quick one: give measured growth for O=C1/C(=C\c2coc3ccccc3c2=O)c2ccccc2N1c1c(Cl)cccc1Cl
RESULT: 85.7% (inactive)

QUERY: Please supply the value of reported growth for the item N#Cc1c(NC(=O)c2ccco2)[n+]([O-])c2ccccc2[n+]1[O-]
RESULT: 92.9% (inactive)

QUERY: Dear colleague, please send me the reported growth for N#Cc1c(-c2ccccc2)cc(-c2ccccc2)n(CC(=O)O)c1=O when you can.
RESULT: 28% (inactive)

QUERY: Report measured growth; entry is COc1cnc2c(c1)C(=O)c1c-2n(CCCN2CCCC2)c(=O)c2cc(F)ccc12
RESULT: 23.1% (inactive)
